- testSummary: Identification of proteins required for the processing of the EWS-FLI1 nascent transcript;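 also: robust z of luciferase light less the median z of siRNAs with the same seed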
- measurementConditions: TC32 Ewing sarcoma NR0B1-luc vs CMV-luc, 48 h; screened at 20 nM (by protocol)
Over roughly 59,000 sequences, the read-out has its median near -0.00055; the lowest 2% begin near -2. Only a selection was taken, and the lowest values are over-represented in it overall.
Criterion: seed-corrected z-score meeting or surpassing 0.08. Met: TRUE. Not met: FALSE.

sequenceString	assignedClass
AAAGGGACGCUCAACCACC against HIST1H4K	FALSE
UCCGUUAUUAGCAUCUGCC against 6-Mar	FALSE
UUGAGUUCCAAGAGGACCC against TPBG	TRUE
AUAGCAAUCAUAUUCACGG against LIG4	FALSE
UUCUGGAGUAGCAAGCUAC against POLR2D	FALSE
AUAAGAUUGGAAUUCGACG against ARL6	TRUE
UCUUUGACAAUAUCAACAG against UBE3D	FALSE
UUUCAAUUUAGUUUGAUGA against LOC728147	FALSE
UCUGGUUCCUCUUUAAGUG against RPL27A	FALSE
UCUAGAUCACCAAACAUCA against OR1N1	TRUE
AAACAGGAAGGUGCUAUCG against GALT	FALSE
UGUAUUAUGACCUUCGCUC against MORC4	FALSE

====

- testSummary: Identification of proteins required for the processing of the EWS-FLI1 nascent transcript;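 also: robust z of luciferase light less the median z of siRNAs with the same seed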
- measurementConditions: TC32 Ewing sarcoma NR0B1-luc vs CMV-luc, 48 h; screened at 20 nM (by protocol)
In all, about 59,000 sequences were measured (the read-out: median about -0.00055, lowest 2% from about -2 on). The entries come from a sample that favours the lowest values as a whole.
Each record's seed-corrected z-score is compared with low-valued (below -0.7), mid-valued (-0.7 to below 0.1), high-valued (0.1 or more) to give its class.

sequenceString	assignedClass
ACAGUUAUUCUGUCCAUCG against LDLRAD3	low-valued
AAAUUAAUCUUCUUCAUUC against COX17	high-valued
UUCAGAGUAAUGUCGACAU against RPL9	mid-valued
AAAUCGUUAGUUGAGGAGC against USP53	high-valued
ACUGUAAUUACUAAGAUCU against CXCR2	low-valued
UGAGGUCCCAGAUUCUCAG against FBXW4	high-valued
UGUAGUAACAGAGCCACGC against PPY	high-valued
UCACUUCCUAUUCCCAUGG against PALM3	low-valued
UUUUCUUGCGUAUGAAUUC against ZNF302	high-valued
UUUGUGCCCUGCGUUUAUC against KCND3	low-valued
UUUCUGAUCAGGUCCAUGA against SLC1A6	mid-valued
AAAACUUGCACCUUCGUGU against ARMC10	mid-valued
UAGUUGUCCUGGUCGGAGC against LY6E	low-valued

====

seed-corrected z-score values by entry
- testSummary: Identification of proteins required for the processing of the EWS-FLI1 nascent transcript;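 also: robust z of luciferase light less the median z of siRNAs with the same seed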
- measurementConditions: TC32 Ewing sarcoma NR0B1-luc vs CMV-luc (EWS-FLI1 target promoter against control promoter), 48 h; screened at 20 nM (by protocol)
In all, about 59,000 sequences were measured (the read-out: median about -0.00055, lowest 2% from about -2 on). The entries come from a sample that favours the lowest values as a whole.
quantityMeasured: seed-corrected z-score

sequenceString	quantityMeasured	experimentalResult
AAAGUAGCAUCGUCUGUCU against GSC	seed-corrected z-score	0.704
UCAUUUCGCACAGCUUCCU against RARG	seed-corrected z-score	0.369
UUAUCUGCUUUAGAUUUGC against PYROXD1	seed-corrected z-score	-0.293
UGUCUGAUUCAUUAUGAGC against CCDC74A	seed-corrected z-score	-0.71
UUCACCAUAAACACGAUCC against DPM1	seed-corrected z-score	0.428
UCUUGGUACUGGAUGCAGC against LOC645166	seed-corrected z-score	1.33
UAAAGGGUUGUGGGAAAUG against LRRC30	seed-corrected z-score	-1.26
UUUUCCACAACCGUAGUCA against GOLGA8G	seed-corrected z-score	0.524
UAUAGUUAAAUCCAUCAUC against CALU	seed-corrected z-score	0.272
UUGUGGUCAAUGCCCUUGG against UBIAD1	seed-corrected z-score	-0.444
UUUGUAACAUCAAUCAGAG against EXOC4	seed-corrected z-score	0.287
UAACUUCAAACCGAUUUCU against TRMU	seed-corrected z-score	-0.389
UCAAGGACCAGGCCGUUUU against ALG1L3P	seed-corrected z-score	1.09
UUCCUGCUGCGUACACUUC against KCNAB3	seed-corrected z-score	-0.0212
UACAUCUCCAGGGUCAGCG against CALY	seed-corrected z-score	-0.514
UCUGGGAAAACAUGGUUGU against DUBR	seed-corrected z-score	-1.17
UAAAGAGUAAAGGUCUUCC against ZNF540	seed-corrected z-score	0.799
UUCUUCUACAGGCUUGAGG against SMNDC1	seed-corrected z-score	-0.35
AAUGUAUCUAAGCAACUUC against DDIAS	seed-corrected z-score	-0.473
UUCCGUAAGACUGACACUC against REG4	seed-corrected z-score	-15.5
UGACCUCCAACACUAGUGC against VPS8	seed-corrected z-score	0.213
AAUGAAUCAAAUGUAACGG against PNPT1	seed-corrected z-score	-0.376
UAGGAGAUAAAGAUAACUA against OR5B2	seed-corrected z-score	-12.5
UUGUGGUUCUCGGAUACGC against CDH15	seed-corrected z-score	-0.955
UUUGAUUAAAAGGUCUCUG against PIGX	seed-corrected z-score	-1.29
UAAUUGUCAUUACUAAGUG against SLC17A6	seed-corrected z-score	-0.508
UUUGUUACAAGCACCUACU against LOC730179	seed-corrected z-score	0.536
UGGGUUCUCAGGAACGGGU against PNKD	seed-corrected z-score	1.76
UUCAUCACCAGCUCUUUCC against CLEC4F	seed-corrected z-score	-0.0692
UUUUUCGACAGGAAAGUGU against C5orf60	seed-corrected z-score	0.245
AUGGUUCAAACAUAGGAUG against WNK1	seed-corrected z-score	-2.09
UUGGGCUUCUUCCUAAUGC against SLC16A3	seed-corrected z-score	-0.147
ACCAUUGUCAUUGCCUUGC against 1-Mar	seed-corrected z-score	-1.24
AUGGGAGUCACAACAGUGU against OR10A5	seed-corrected z-score	-9.99
UAACGUAUAGCUACAACUC against MED23	seed-corrected z-score	0.49
UGAGUAGAUGAUCUUGUCG against GNA11	seed-corrected z-score	0.913
UAAGCAUAUAUUCCCGUAC against CDC7	seed-corrected z-score	0.52
UCUACUUUUCACAAUGACC against GCLM	seed-corrected z-score	-0.666
UCAUUGUCCGAUGCCUUGG against SLCO1B3	seed-corrected z-score	-0.953
AAAGUGUCUAGCCCUAUGG against MESP1	seed-corrected z-score	0.768
UGUAGUGACAUCUCCGCCU against MCFD2P1	seed-corrected z-score	0.515
UUCGUGAACAGACAGAACU against OAS2	seed-corrected z-score	-0.385
UCAUAGUCCAUUCAGAGUU against CEACAM19	seed-corrected z-score	0.0695
AUAGACAACUUUGAGGUCC against AP1S1	seed-corrected z-score	-0.000301
AAUGAUCACACCUAAGCCC against USH2A	seed-corrected z-score	-3.89
AGUUGUAGAAGAACGAAUC against PSMD2	seed-corrected z-score	-3.28
UUUGGUCCAAAUUCACUCC against C2orf76	seed-corrected z-score	-2.66
UUGUAGUUCAGCUGGUUGU against SPATA2	seed-corrected z-score	-2.04
UAAUAUGAUGUCUUCAACC against GABRQ	seed-corrected z-score	0.559
AAUCUCACAGGUGAAGUGG against OR2S2	seed-corrected z-score	-0.14
UUUCUUAGAAAUGAGGUGA against OVOL1	seed-corrected z-score	-0.287
UUGAUAUUUGUGAAUCUCC against FERMT1	seed-corrected z-score	-0.474
